# system.under.test: KCNT1 (KNa1.1, Slack) (Homo sapiens)
# Sequence (Q5JUK3 1-1230): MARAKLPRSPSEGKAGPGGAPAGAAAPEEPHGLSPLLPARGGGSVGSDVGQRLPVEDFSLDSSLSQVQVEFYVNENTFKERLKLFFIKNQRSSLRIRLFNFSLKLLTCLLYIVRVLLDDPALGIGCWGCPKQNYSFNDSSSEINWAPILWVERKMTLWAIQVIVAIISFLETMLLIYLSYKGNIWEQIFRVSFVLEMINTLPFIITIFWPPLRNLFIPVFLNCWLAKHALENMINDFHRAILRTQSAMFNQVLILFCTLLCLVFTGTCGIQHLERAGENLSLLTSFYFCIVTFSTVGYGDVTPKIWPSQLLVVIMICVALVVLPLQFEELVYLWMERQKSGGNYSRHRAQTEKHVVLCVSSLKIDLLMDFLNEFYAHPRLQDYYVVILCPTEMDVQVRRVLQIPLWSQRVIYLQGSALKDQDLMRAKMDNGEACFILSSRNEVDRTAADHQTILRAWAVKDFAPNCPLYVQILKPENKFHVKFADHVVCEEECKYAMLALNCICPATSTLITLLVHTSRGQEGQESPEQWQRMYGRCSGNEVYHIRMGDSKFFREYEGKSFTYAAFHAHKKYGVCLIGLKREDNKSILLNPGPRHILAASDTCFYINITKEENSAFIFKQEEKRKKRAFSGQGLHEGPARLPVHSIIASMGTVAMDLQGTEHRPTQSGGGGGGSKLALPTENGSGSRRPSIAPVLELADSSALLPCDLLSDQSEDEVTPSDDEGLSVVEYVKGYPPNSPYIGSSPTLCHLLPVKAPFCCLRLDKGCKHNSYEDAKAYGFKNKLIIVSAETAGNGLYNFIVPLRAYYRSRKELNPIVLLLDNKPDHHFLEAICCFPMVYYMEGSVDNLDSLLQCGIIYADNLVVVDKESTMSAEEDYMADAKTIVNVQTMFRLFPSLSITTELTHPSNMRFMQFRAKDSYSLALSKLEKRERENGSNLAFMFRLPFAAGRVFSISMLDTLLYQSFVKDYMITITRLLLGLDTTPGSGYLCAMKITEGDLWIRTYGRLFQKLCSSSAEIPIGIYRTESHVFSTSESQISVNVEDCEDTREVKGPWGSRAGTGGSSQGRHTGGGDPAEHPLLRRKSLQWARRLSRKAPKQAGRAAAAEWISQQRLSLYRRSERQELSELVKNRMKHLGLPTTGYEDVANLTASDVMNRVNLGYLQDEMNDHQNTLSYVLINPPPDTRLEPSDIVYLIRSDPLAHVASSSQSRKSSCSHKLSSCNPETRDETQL
# assay: KCNT1-WT-Basal patch clamp assay (SyncroPatch 384PE, HEK-TREX inducible cell line)
# cond: tetracycline inducible HEK-TREX cells; perforated patch; holding -80 mV, 100 ms step to 0 mV; room temperature; read-out: KCNT1 WB IC50
reported.endpoint: IC50

Observe how each entry below is paired with its result.
molecule=CCS(=O)(=O)Nc1ccc(C(=O)N[C@H]2CCc3cc(Cl)ccc32)cc1 reported_endpoint=IC50 test_value="≥ 20 µM"
molecule=O=C(N[C@@H]1CCc2cc(Cl)ccc21)c1ccc(S(=O)(=O)CC(F)F)cc1 reported_endpoint=IC50 test_value="1 to 20 µM"
molecule=O=C(N[C@@H]1CCc2cc(Cl)ccc21)c1ccc(S(=O)(=O)C(F)F)cc1 reported_endpoint=IC50 test_value="≤ 1 µM"
molecule=O=C(N[C@@H]1CCc2cc(Cl)ccc21)c1ccc(NS(=O)(=O)C2CC2)cc1 reported_endpoint=IC50 test_value="1 to 20 µM"
molecule=COCc1ccc(C(=O)N[C@@H]2CCc3cc(Cl)ccc32)s1 reported_endpoint=IC50 test_value="≤ 1 µM"

Query IC50 for CS(=O)(=O)N(CCOC(F)(F)F)c1ccc(C(=O)N[C@@H]2CCc3cc(Cl)ccc32)cc1
≥ 20 µM

Query IC50 for CS(=O)(=O)c1ccc(C(=O)N[C@@H]2CCc3cc(Cl)ccc32)s1
≤ 1 µM

Query IC50 for CS(=O)(=O)Nc1ccc(C(=O)NC2CCCc3cc(Cl)ccc32)cc1 (single isomer, unassigned) [Compound II-52]
≥ 20 µM

Query IC50 for CS(=O)(=O)N(CCO)c1ccc(C(=O)N[C@@H]2CCc3cc(Cl)ccc32)cc1
1 to 20 µM

Query IC50 for NS(=O)(=O)c1csc(C(=O)N[C@@H]2CCc3cc(Cl)ccc32)c1
1 to 20 µM

Query IC50 for CS(=O)(=O)c1ccc(C(=O)N[C@H]2CCCc3cc(Cl)ccc32)s1 (single isomer, unassigned)
≤ 1 µM

Query IC50 for O=C(N[C@H]1CCc2cc(Cl)ccc21)c1ccc(F)cc1 (single isomer, unassigned)
≥ 20 µM

Query IC50 for Cn1nc(C(=O)N[C@@H]2CCc3cc(Cl)ccc32)cc1C1CC1
1 to 20 µM

Query IC50 for Cc1oc(C(=O)N[C@@H]2CCc3cc(Cl)ccc32)cc1S(N)(=O)=O
1 to 20 µM
